Cited source: patent EP4671280A1

- experimental_target: T1, cynomolgus monkey Nectin-4 expressed on CHO-K1 cells (cynomolgus monkey, UniProt Q96NY8 32-370 (human entry), limits assumed)
- T1 construct: also called CHO-K1/cynoNectin4; cells expressing the cynomolgus monkey Nectin-4 protein
- T1 chain: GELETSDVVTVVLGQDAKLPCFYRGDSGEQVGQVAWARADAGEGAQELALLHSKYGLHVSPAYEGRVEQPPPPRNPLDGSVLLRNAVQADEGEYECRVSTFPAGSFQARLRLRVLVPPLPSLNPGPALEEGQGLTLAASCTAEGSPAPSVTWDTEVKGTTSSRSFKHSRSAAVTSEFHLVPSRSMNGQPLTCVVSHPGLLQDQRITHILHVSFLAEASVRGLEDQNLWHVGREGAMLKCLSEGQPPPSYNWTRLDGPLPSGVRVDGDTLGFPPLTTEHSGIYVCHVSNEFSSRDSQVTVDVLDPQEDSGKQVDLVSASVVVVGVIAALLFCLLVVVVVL
- assay_protocol: flow cytometry on CHO-K1/cynoNectin4 cells
property_measured: binding result

{"columns": ["binder", "property_measured", "observed"],
 "data": [
  ["huH4F3-8 (antibody, human IgG1, kappa, V domains shown, Humanized 23-H4F3, human IgG1/kappa) VH: QVQLVQSGAEVKKPGASVKVSCKASGYTFTSYYIHWVRQAPGQRLEWMGWIYPGNVNTKYSQKFQGRVTLTRDKSASTAYMELSSLRSEDTAVYFCARGVYYFDFWGQGTLVTVSS VL: AIQMTQSPSSLSASVGDRVTITCRASQSVSNDVGWFQQKPGKAPKLLIYYALNRYTGVPSRFSGSGSGTDFTFTISSLQPEDFATYYCQQDYSSPYTFGQGTKLEIKR", "binding result", "binds"],
  ["huH4F3-2 (antibody, human IgG1, kappa, V domains shown, Humanized 23-H4F3, human IgG1/kappa) VH: QVQLVQSGAEVKKPGASVKVSCKASGYTFTSYYIHWVRQAPGQRLEWMGWIYPGNVNTKYSQKFQGRVTLTRDKSASTAYMELSSLRSEDTAVYYCARGVYYFDFWGQGTLVTVSS VL: AIQMTQSPSSLSASVGDRVTITCRASQSVSNDVGWYQQKPGKAPKLLIYYALNRYTGVPSRFSGSGSGTDFTLTISSLQPEDFATYYCQQDYSSPYTFGQGTKLEIKR", "binding result", "binds"],
  ["huH4F3-7 (antibody, human IgG1, kappa, V domains shown, Humanized 23-H4F3, human IgG1/kappa) VH: QVQLVQSGAEVKKPGASVKVSCKASGYTFTSYYIHWVRQAPGQRLEWMGWIYPGNVNTKYSQKFQGRVTLTRDKSASTAYMELSSLRSEDTAVYFCARGVYYFDFWGQGTLVTVSS VL: AIQMTQSPSSLSASVGDRVTITCRASQSVSNDVGWYQQKPGKAPKLLIYYALNRYTGVPSRFSGSGSGTDFTLTISSLQPEDFATYYCQQDYSSPYTFGQGTKLEIKR", "binding result", "binds"]
]}
